- Tested on: CCRIS mutagenicity, Ames/micronucleus/aberration tests
- ASSAY_COMMENT: CCRIS mutagenicity studies
- MEASUREMENT_SETUP: Test System: AMES SALMONELLA TYPHIMURIUM; Strain/Indicator: TA100; Metabolic Activation: RAT, LIVER, S-9, AROCLOR 1254; Method: PREINCUBATION
The source made the active and inactive calls. The rule behind the calls is not given here.
Possible outcomes: TRUE (active), FALSE (inactive)

COMPOUND	CLASS_LABEL
CN(C)c1ccc([C@H]2C[C@]3(C)[C@@H](CC[C@]3(O)CCCO)[C@@H]3CCC4=CC(=O)CCC4=C32)cc1	FALSE
O=C/C=C/c1ccccc1[N+](=O)[O-]	TRUE
Brc1c(Br)c(Br)c(Br)c(Br)c1Br	FALSE
CC(C)(C)OO	FALSE
O.O.O.O=C([O-])COc1ccccc1.O=C([O-])COc1ccccc1.[Cu+2]	FALSE
CCCCOB(OCCCC)OCCCC	FALSE
O=NN1CCSC1[C@H](O)[C@@H](O)[C@@H](O)CO (some centres not stated)	FALSE
C[C@@H]1Cc2c(Cl)cc(C(=O)NC(Cc3ccccc3)C(=O)O)c(O)c2C(=O)O1 (some centres not stated)	FALSE
Cc1c(N(C)CS(=O)(=O)O)c(=O)n(-c2ccccc2)n1C	TRUE
C(=C/c1ccccc1)/c1ccccc1	FALSE
Cc1cccs1	FALSE
C[C@]12CC[C@@H]3c4ccc(O)cc4CC[C@H]3[C@@]13CC[C@]2(O)[C@H](O)C3	FALSE
